Assay: Studies on pharmacokinetic properties in mice (plasma concentration by LC-MS/MS)
Format: in vivo
Settings: mouse, po, C57BL/6 male mice, intragastric vs tail vein, dose not stated
Assign bioavailability to each entry below.
One number for each entry, in %.

INSERT INTO assay_data (compound, readout_value) VALUES
  ('Cc1cc2c(F)cn(-c3cccc(-c4nncn4C(C)C)n3)c(=O)c2cc1-n1cnc(C2CC2)c1 [Example 007]', 123),
  ('Cc1cc2ncn(-c3cccc(-c4nncn4C4CC4)n3)c(=O)c2cc1-n1cnc(C2CC2)c1 [Example 018]', 111),
  ('Cc1cc2c(cc1-n1cnc(C3CC3)c1)C(=O)N(c1cccc(-c3nnc4n3CCCC4)n1)CC2 [Example 009]', 115),
  ('Cc1cc2c(cc1-n1cnc(C3CC3)c1)C(=O)N(c1cccc(-c3nncn3C(C)C)n1)CC2 [Example 002]', 92);

Give bioavailability for each of the items listed below.
1. CC(C)n1cnnc1-c1cccc(-n2cc(F)c3ccc(-n4cnc(C5CC5)c4)cc3c2=O)n1 [Example 003]
2. CC(C)n1cnnc1-c1cccc(N2CCc3ccc(-n4cnc(C5CC5)c4)cc3C2=O)n1 [Example 001]
3. Cc1cc2c(cc1-n1cnc(C3CC3)c1)C(=O)N(c1cccc(-c3nnc4n3CCC4)n1)CC2 [Example 008]
4. Cc1cc2ncn(-c3cccc(-c4nncn4C(C)C)n3)c(=O)c2cc1-n1cnc(C2CC2)c1 [Example 011]
5. COc1ccc(-c2cc3ncn(-c4cccc(-c5nncn5C(C)C)n4)c(=O)c3cc2-n2cnc(C3CC3)c2)cn1 [Example 033]

## Output
[214, 133, 98.5, 108, 148]

* * *

Assign pIC50 to each entry below.
Molecular target: ASK1/MAP3K5 (Homo sapiens (Human), UniProt Q99683)
Sequence (Q99683 whole entry): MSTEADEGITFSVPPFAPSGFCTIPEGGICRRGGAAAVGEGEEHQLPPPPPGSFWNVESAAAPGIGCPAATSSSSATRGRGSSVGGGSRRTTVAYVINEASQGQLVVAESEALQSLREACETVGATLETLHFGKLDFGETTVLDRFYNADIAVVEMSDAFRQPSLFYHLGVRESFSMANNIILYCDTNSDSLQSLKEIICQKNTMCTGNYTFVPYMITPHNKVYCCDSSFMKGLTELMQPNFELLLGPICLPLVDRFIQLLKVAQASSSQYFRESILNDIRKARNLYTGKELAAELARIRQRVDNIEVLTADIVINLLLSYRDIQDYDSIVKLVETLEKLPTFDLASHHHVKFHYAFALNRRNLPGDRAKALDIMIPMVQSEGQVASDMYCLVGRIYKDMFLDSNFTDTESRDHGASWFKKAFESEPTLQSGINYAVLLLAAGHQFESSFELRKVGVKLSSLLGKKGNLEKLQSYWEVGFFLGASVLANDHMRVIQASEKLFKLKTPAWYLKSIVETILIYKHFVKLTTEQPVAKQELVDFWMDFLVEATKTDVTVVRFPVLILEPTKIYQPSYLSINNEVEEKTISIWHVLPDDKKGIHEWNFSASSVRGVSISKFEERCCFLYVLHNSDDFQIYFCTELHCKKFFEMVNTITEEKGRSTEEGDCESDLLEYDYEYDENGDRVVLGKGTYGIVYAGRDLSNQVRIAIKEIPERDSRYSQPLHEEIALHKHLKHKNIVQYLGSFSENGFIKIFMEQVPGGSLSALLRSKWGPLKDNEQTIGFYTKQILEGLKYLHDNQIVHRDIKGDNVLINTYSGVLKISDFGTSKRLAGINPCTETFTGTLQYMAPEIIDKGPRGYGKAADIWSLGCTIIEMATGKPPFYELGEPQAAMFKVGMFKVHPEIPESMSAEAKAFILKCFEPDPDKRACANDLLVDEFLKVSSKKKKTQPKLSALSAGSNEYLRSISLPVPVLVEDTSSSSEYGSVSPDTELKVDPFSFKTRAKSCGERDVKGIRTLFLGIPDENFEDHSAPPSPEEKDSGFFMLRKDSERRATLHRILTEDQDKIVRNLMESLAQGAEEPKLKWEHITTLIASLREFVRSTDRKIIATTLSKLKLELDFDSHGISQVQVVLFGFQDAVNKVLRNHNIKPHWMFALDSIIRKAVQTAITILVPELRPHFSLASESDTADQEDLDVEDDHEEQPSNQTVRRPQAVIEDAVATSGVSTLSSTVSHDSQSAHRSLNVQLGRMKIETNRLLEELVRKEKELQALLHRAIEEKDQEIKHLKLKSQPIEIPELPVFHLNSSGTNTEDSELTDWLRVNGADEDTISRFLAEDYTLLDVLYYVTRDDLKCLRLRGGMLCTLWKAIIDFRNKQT
Assay: Evaluation of in vitro enzyme activity (33P-ATP radiometric kinase assay, MBP substrate)
Settings: recombinant human full length GST-tagged ASK1 20 nM, MBP 20 μM
pIC50: −log10 of the molar value.

Consider the following illustrative entries.
INSERT INTO measurements (mol, readout_value) VALUES
  ('CC(C)n1cnnc1-c1cccc(-n2cnc3cc(Cl)c(-n4cnc(C5CC5)c4)cc3c2=O)n1', '≥ 7.30'),
  ('Cc1cc2ncn(-c3cccc(-c4nncn4C4CCCCC4)n3)c(=O)c2cc1-n1cnc(C2CC2)c1', '≥ 7.30'),
  ('Cc1cc2ncn(-c3csc(-c4nncn4C(C)C)n3)c(=O)c2cc1-n1cnc(C2CC2)c1', '≥ 7.30'),
  ('Cc1cc2ncn(-c3cccc(-c4nncn4C(C)C)n3)c(=O)c2cc1-c1ccc(C(C)C)nc1', '≥ 7.30');

// next item, pIC50 requested
## Input Return reported pIC50; argument: CC(C)n1cnnc1-c1cccc(-n2cnc3cc(N4CCOCC4)c(-n4cnc(C5CC5)c4)cc3c2=O)n1
## Output ≥ 7.30

* * *

Molecular target: ASK1/MAP3K5 (Homo sapiens (Human), UniProt Q99683)
Assay: Evaluation of in vitro enzyme activity (33P-ATP radiometric kinase assay, MBP substrate)
Conditions: recombinant human full length GST-tagged ASK1 20 nM, MBP 20 μM
pIC50: −log10 of the molar value.
Recorded Metric: pIC50

INSERT INTO results (mol, readout_value) VALUES
  ('Cc1cc2ncn(-c3cccc(-c4nncn4C4CCOCC4)n3)c(=O)c2cc1-n1cnc(C2CC2)c1', '6.00 to 7.30'),
  ('CC(C)n1cnnc1-c1cccc(-n2cnc3cc(OCCCF)c(-n4cnc(C5CC5)c4)cc3c2=O)n1', '≥ 7.30'),
  ('COc1cc2ncn(-c3cccc(-c4nncn4C(C)C)n3)c(=O)c2cc1-n1cnc(C2CC2)c1', '≥ 7.30'),
  ('COCCOc1cc2ncn(-c3cccc(-c4nncn4C(C)C)n3)c(=O)c2cc1-n1cnc(C2CC2)c1', '≥ 7.30'),
  ('Cc1cc2ncn(-c3cccc(-c4nncn4CC(F)(F)F)n3)c(=O)c2cc1-n1cnc(C2CC2)c1', '≥ 7.30');

Give pIC50 for each of the items listed below.
1. Cc1nc(C2CC2)cn1-c1ccc2c(c1)C(=O)N(c1cccc(-c3nnc4n3CCCC4)n1)CC2
2. Cc1cc2ccn(-c3cccc(-c4nncn4C(C)C)n3)c(=O)c2cc1-n1cnc(C2CC2)c1

## Output
1. < 6.00
2. ≥ 7.30
